Cited source: paper PMC7250496

pIC50 values, listed per item
# assayed target: mouse melanocortin 3 receptor (mouse, UniProt P33033 1-323)
# Sequence (P33033 whole entry): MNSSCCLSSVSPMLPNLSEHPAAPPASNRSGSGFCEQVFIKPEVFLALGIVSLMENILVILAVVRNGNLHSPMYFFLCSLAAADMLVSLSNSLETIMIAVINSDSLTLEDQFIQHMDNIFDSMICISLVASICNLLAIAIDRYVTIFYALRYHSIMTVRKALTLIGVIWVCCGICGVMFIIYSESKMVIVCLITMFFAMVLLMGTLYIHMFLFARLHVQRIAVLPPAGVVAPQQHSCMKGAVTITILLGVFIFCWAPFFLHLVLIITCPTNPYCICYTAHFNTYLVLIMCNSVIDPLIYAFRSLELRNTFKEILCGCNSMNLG
# measurement notes: radioligand binding
Square brackets hold non-standard residues; d marks the D form. Dap = NC[C@H](N)C(=O)O
The read-out pIC50 is expressed as -log10 of concentration in moles per litre.

- binder: "PRFFXAFP (Dap (diaminopropionic acid) at position 5 (X in the letters); DPro at position 8; head-to-tail cyclised (macrocycle)) [c[Pro-Arg-Phe-Phe-Dap-Ala-Phe-DPro]]"
  pIC50: 5.49
- binder: "cyclo(PRFFNVF[dP]) [c[Pro-Arg-Phe-Phe-Asn-Val-Phe-DPro]]"
  pIC50: 4.28
- binder: "cyclo(PRYF[Dap]AF[dP]) [c[Pro-Arg-Tyr-Phe-Dap-Ala-Phe-DPro]]"
  pIC50: 4.55
- binder: "cyclo(PCFF[Dap]AF[dP]) [c[Pro-Cys-Phe-Phe-Dap-Ala-Phe-DPro]]"
  pIC50: 4.31
- binder: "cyclo(PHFF[Dap]AF[dP]) [c[Pro-His-Phe-Phe-Dap-Ala-Phe-DPro]]"
  pIC50: 4.82

Here is the next item to consider.
For the binder cyclo(PRFF[Dap]VF[dP]) [c[Pro-Arg-Phe-Phe-Dap-Val-Phe-DPro]] , give its measured pIC50 value.
5.00
